These measurements were taken from patent US20240376185A1.

- system: tetanus neurotoxin (TeNT), authentic tetanus holotoxin (Clostridium tetani, UniProt P04958 2-1315)
- Sequence (P04958 2-457 limits assumed, chain 1 of 2): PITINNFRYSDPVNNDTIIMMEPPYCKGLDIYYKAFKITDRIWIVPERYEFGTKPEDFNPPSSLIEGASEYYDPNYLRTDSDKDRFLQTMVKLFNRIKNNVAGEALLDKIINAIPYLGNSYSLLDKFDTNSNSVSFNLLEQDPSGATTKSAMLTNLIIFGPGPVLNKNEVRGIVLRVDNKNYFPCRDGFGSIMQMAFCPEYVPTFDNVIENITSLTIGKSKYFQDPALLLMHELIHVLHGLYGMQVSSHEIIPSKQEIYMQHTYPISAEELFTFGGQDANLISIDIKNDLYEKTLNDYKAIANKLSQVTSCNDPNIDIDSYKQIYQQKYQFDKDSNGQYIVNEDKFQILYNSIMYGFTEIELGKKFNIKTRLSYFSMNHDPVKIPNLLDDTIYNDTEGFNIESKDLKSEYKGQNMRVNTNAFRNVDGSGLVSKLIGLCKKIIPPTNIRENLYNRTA
- Sequence (P04958 458-1315 limits assumed, chain 2 of 2): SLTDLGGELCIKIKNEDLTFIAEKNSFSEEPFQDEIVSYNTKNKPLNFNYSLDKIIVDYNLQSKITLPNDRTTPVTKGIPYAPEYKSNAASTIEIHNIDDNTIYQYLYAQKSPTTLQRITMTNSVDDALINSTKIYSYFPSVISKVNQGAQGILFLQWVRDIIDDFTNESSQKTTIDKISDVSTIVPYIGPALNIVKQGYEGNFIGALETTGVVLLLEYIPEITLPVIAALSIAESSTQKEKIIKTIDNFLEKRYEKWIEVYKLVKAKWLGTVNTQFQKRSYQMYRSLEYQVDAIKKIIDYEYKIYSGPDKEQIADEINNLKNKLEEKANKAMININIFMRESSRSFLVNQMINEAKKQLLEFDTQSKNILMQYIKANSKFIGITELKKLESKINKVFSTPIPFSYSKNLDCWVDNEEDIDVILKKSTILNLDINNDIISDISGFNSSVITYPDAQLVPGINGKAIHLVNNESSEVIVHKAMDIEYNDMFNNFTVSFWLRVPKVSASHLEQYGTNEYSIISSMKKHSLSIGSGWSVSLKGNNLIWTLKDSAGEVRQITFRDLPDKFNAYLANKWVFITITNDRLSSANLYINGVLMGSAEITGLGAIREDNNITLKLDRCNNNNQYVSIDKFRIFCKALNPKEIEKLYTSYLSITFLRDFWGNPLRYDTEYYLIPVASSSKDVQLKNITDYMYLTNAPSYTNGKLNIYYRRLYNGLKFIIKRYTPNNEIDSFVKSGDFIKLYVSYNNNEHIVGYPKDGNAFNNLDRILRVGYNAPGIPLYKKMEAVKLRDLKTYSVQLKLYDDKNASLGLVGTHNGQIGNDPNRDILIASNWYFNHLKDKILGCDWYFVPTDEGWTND
- assay.details: BLI (Octet Red96): biotinylated TeNT on SA sensor, SDA as analyte
parameter.measured: kon

binder: SVT15-3FW4M-GS2-SVG13M4-H6 (bispecific antibody) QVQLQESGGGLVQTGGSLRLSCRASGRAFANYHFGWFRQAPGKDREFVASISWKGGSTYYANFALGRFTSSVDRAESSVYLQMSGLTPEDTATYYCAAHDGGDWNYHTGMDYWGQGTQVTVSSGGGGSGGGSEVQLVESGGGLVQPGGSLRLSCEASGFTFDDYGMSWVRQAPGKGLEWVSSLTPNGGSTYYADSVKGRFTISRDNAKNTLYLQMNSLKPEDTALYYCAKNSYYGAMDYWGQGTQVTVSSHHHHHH
endpoint.result: 429000 M⁻¹ s⁻¹
//
binder: SVT02-GS2-SVG13M4-H6 (bispecific antibody) QVQLQQSGGGSVQAGGSLRLSCVGPQRTFSTYGMGWFRQAPGKEREFVAGINYKGDTTYYADSVKGRFTISRDNAKNTLYLQMDSLKPEDRAVYQCARKGGLGGDYRDAGQYRYWGQGTQVTVSSGGGGSGGGSEVQLVESGGGLVQPGGSLRLSCEASGFTFDDYGMSWVRQAPGKGLEWVSSLTPNGGSTYYADSVKGRFTISRDNAKNTLYLQMNSLKPEDTALYYCAKNSYYGAMDYWGQGTQVTVSSHHHHHH
endpoint.result: 1.23e+06 M⁻¹ s⁻¹
//
binder: SVT03L (VHH) VHH: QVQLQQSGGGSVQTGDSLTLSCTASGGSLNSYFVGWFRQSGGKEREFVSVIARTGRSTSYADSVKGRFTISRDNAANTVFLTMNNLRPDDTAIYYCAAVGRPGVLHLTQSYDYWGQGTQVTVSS
endpoint.result: 5.65e+06 M⁻¹ s⁻¹
